B1: HDV Ribozyme (parent)
chain: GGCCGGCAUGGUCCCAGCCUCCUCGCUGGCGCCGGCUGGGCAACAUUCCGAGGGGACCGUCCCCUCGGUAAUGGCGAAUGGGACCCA

Variants of: B1
Assay: self-cleavage, relative activity (ratio to wild type); higher = more cleavage; co-transcriptional
Hi all, reminder that labels come from self-cleavage, split as low range = under 0.2, mid range = from 0.2 up to 0.7, high range = 0.7 and over

Which category does the recorded self-cleavage put GGCCGGCAUGGUCCCAGCCUCCUCGCUGGCGCCGGGUGGGCAACAUUCCGAGGGGACCGUCCCCUCGGUAAGGGCGAAUGGGACCCA in? low range

Which category does the recorded self-cleavage put GGCCGGCAUGGUCCCAGCCUCCUCGCUGGCGCCGGCAGGGCAACAUUCCGAGGGGACCGUCCCCUCGGUAAUGGCGAAUGGAACCCA in? low range

Which category does the recorded self-cleavage put GGCCGGCAUGGUCCCAGCCUCCUCGCUGGCGCCGGCUGGGCAACAUUCAGAGGGGACCGUCCCCUCUGUAAUGGCGAAUGGGACCCA in? high range

Which category does the recorded self-cleavage put GGCCGGCAGGGUCCCAGCCUCCUCGCUGGCGCCGGCUGGGCAACAUUCCGAGGGGACCGUCCCCUCGGUAACGGCGAAUGGGACCCA in? mid range

Which category does the recorded self-cleavage put GGCCGGCAUGGUCCCAGCCUCCUCGCUGGCGCCGGCUGGGCAACAUACCCAGGGGACCGUCCCCUCGGUAAUGGCGAAUGGGACCCA in? high range

Which category does the recorded self-cleavage put GGCCGGCAUGGUCCCAGCCUCCUCGCUGUCGCCGGCUGGGCAACAUUCCGAGGGGACCGUCCCCUCGGUAAUGACGAAUGGGACCCA in? low range

Which category does the recorded self-cleavage put GGCCGGCAUGGUCCCAGCCUCCUCGCAGGCGCCGGCUGGGCAACAUUCCGAGGGCACCGUCCCCUCGGUAAUGGCGAAUGGGACCCA in? high range

Which category does the recorded self-cleavage put GGCCGGCAUGGUCCCAGCCUCCUCGCUGGCGCCGGCUGGACAACAGUCCGAGGGGACCGUCCCCUCGGUAAUGGCGAAUGGGACCCA in? mid range

Which category does the recorded self-cleavage put GGCCGGCAUGGUCCCAGCCUCCUCGCUGGCCCCGGCUGGGCAACAUUCCGAGGGGACCGUCCCCUCGGUAAUGGCGAAUGGGCCCCA in? low range

Which category does the recorded self-cleavage put GGCCGGCAUGGUCCCAGCCUCCUCGCUGGCGCCGGCUGGGCAACAUUCCGAGGGGACCGUCCCAUCGGUAAUGGCGAAUGGGACACA in? mid range

Which category does the recorded self-cleavage put GGCCGGCAUGGUCCCAGCCUCCUCGCUGGCGCCGGCUGGGCAACAUUCCGAGGGGACCGUCCCCUCGGUAAUGGCCAAUGGGGCCCA in? mid range

Which category does the recorded self-cleavage put GGCCGGCAUGGUCCCAGCCUCCUCGCUGGCGCCGGCUGGGCAAAAUUCCGAGGGGACCGUCCCCUCGGUAAUGGCGAAUGGGACCUA in? high range

Which category does the recorded self-cleavage put GGCCGGCAUGGUCCCAGCCUCCUCGCUGGCGCCGGCUGGGCAACAUUCCUAGGGGACCGUCCGCUCGGUAAUGGCGAAUGGGACCCA in? mid range

Which category does the recorded self-cleavage put GGCCGGCAUGGUCCCAGCCUCCUCGCUGGCGCCGGCUGGGCAACAUUCCGAGGGGACCGUCCCCUCGGUAAUGGCGAAUGGCAGCCA in? low range

Which category does the recorded self-cleavage put GGCCGGCAUGGUCCCAGCCUACUCGCUGGCGCCGGCUGGGCAACAUUCCGAGGGGACCGUCCCCUCGGUAAUGGCGAAUGUGACCCA in? low range

Which category does the recorded self-cleavage put GGCCGGCAUGGUCCCAGCCUCCUCGCUGGCGCCGGCUGGGCAACAUUCCGAGCGGACCGUCCCCCCGGUAAUGGCGAAUGGGACCCA in? high range

Which category does the recorded self-cleavage put GGCCGGCAUGGUCGCAGCCUCCUCGCUGGCGCCGGCUGGGCAACAUUCCGAGGGGACCGUCCCCGCGGUAAUGGCGAAUGGGACCCA in? mid range

Which category does the recorded self-cleavage put GGCUGGCAUGGUCCCAGCCUCCUCGCUGGCGCCGGCUGGGCAACAUUCCGAGGUGACCGUCCCCUCGGUAAUGGCGAAUGGGACCCA in? high range

Which category does the recorded self-cleavage put GGCCGGCAUGGUCCCAGCCUCCUCGCUGGCGCCGGCUGGGCAACAUUCCGAGGGGACCGUCCCUUCGGUAAUGGCGUAUGGGACCCA in? mid range

Which category does the recorded self-cleavage put GGCCGGCAUGGUCCCAGCCUCCUCGCUGUCGCCGGCUGGGCAACAUUCUGAGGGGACCGUCCCCUCGGUAAUGGCGAAUGGGACCCA in? low range

Which category does the recorded self-cleavage put GGCCGGCAUGGUCCGAGCCUCCUCGCUGGCGCCGGCUGGGCAACAUUCCUAGGGGACCGUCCCCUCGGUAAUGGCGAAUGGGACCCA in? mid range

Which category does the recorded self-cleavage put GGCCGGCAUGGUCCCAGCCUCCUCGCUGGCGCCGUCUGGGCAACAUUCCGAGGGGACCGUCCCCUCGGAAAUGGCGAAUGGGACCCA in? mid range

Which category does the recorded self-cleavage put GGCCGGCAUGGUCCCAGCCUCCUCGCUGGCGCCGGCUGUGCAACAUUCCGAGGGGACCGUCCCCUCGGUAAUUGCGAAUGGGACCCA in? mid range

Which category does the recorded self-cleavage put GGCCGGCAUGGUCCCAGGCUCCUCGCUGGCGCCGGCUGGGCAACAUUCAGAGGGGACCGUCCCCUCGGUAAUGGCGAAUGGGACCCA in? low range

Which category does the recorded self-cleavage put GGCCGGCAUGGUCCCAGCCUCCUCGCUGGCGCCGGCUGGGUAACAUUCCGAGGGGACCGUCCCCGCGGUAAUGGCGAAUGGGACCCA in? high range

Which category does the recorded self-cleavage put GGCCGGCAUGGUCCCAGCCUCCACGCUGGCGCCGGCUGGGCAACAUUCCGAGGGGACCGUCCCCACGGUAAUGGCGAAUGGGACCCA in? high range

Which category does the recorded self-cleavage put GGCCGGCAUGGUCCCAGACUCCUCGCUGGCGCGGGCUGGGCAACAUUCCGAGGGGACCGUCCCCUCGGUAAUGGCGAAUGGGACCCA in? low range

Which category does the recorded self-cleavage put GCCCGGCAUGGUCCCAGCCUCCUCGCUGGCGCCGGCUGGGCAACGUUCCGAGGGGACCGUCCCCUCGGUAAUGGCGAAUGGGACCCA in? low range

Which category does the recorded self-cleavage put GGCCGGCAUGGUCCCAGCCUCCUCGCUGGCGCCGGCAGGGCAACAUUCCGAGGGGACCGUCCCCUCGGUAAUGUCGAAUGGGACCCA in? mid range

Which category does the recorded self-cleavage put GGCCGGCAUGGUCCCAGCCUCCUCGCUGGCGCCGGCUGGGCAACAUUCCGAGGGGACCGUCCCCUCGGUAAUGGCGAAUUGGACGCA in? low range

Which category does the recorded self-cleavage put GGCCGGCAUGGUCCAAGCCUCCUCGCUGGCGUCGGCUGGGCAACAUUCCGAGGGGACCGUCCCCUCGGUAAUGGCGAAUGGGACCCA in? mid range

Which category does the recorded self-cleavage put GGCCGGCAUGGUCCCAGCCUCCUCGCUGGCGCCGGCUGUUCAACAUUCCGAGGGGACCGUCCCCUCGGUAAUGGCGAAUGGGACCCA in? mid range

Which category does the recorded self-cleavage put GGCCGGCAUGGUCCCAGCCUCCUCGUUGGCGCCGGCUGGGCAACAUUCCGAGGGGAACGUCCCCUCGGUAAUGGCGAAUGGGACCCA in? high range

Which category does the recorded self-cleavage put GGCCGGCAUGGGCCCAGCCUCCUCGCUGGCGCCGGCUGGGCAACAUUCCGAGGGGACCGUCCCCUCGGUAUUGGCGAAUGGGACCCA in? high range

Which category does the recorded self-cleavage put GGCCGGCAUGGUCCCAGCCUCCUCGCUGGCGCUGGCUGGGCAACAUUCCGAGGGGACCGUCACCUCGGUAAUGGCGAAUGGGACCCA in? mid range

Which category does the recorded self-cleavage put GGCCGGCAUGGUCCCAGACUCCUCGCUGGCGCCGGCUGGGCUACAUUCCGAGGGGACCGUCCCCUCGGUAAUGGCGAAUGGGACCCA in? low range

Which category does the recorded self-cleavage put GGCCGGCAUGGUCCCAGCCACCUCGCUGGCACCGGCUGGGCAACAUUCCGAGGGGACCGUCCCCUCGGUAAUGGCGAAUGGGACCCA in? low range
